Quick list: Ki per entry.
# system_name: Adenosine receptor A1 (Rattus norvegicus)
# Sequence (P25099 whole entry): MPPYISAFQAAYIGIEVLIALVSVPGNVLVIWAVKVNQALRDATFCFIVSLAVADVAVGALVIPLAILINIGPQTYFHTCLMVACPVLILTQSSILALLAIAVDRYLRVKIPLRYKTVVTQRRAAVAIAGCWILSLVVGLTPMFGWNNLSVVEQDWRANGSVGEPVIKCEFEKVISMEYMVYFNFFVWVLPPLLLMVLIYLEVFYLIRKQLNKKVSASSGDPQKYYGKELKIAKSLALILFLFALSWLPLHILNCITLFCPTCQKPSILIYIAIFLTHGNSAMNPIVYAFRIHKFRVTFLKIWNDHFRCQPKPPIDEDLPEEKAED
experimental_readout: Ki (nM)

> print(dat)
                                   compound  experimental.readout  experimental.result
1  CCNC(=O)[C@H]1OC(n2cnc3c(NCCCCCCCCCCCCNS(=O)(=O)c4cccc5c(N(C)C)cccc45)ncnc32)[C@H](O)[C@@H]1O (some centres not stated)                    Ki                 3400
2  CCNC(=O)[C@H]1OC(n2cnc3c(NCCCCCCNS(=O)(=O)c4cccc5c(N(C)C)cccc45)ncnc32)[C@H](O)[C@@H]1O (some centres not stated)                    Ki                   27

###

# system_name: Adenosine A2 receptor (Rattus norvegicus, UniProt P29276+P30543)
# test_summary: Binding affinity for adenosine A2 receptor of rat striatal membrane using [3H]CGS-21680
Quick list: Ki per entry.
experimental_readout: Ki (µM)

> print(dat)
                                   compound  units.of.measure  censoring.operator  experimental.result
1  CCNC(=O)[C@H]1OC(n2cnc3c(NCCCNS(=O)(=O)c4cccc5c(N(C)C)cccc45)ncnc32)[C@H](O)[C@@H]1O (stereo partly specified)                µM                   =                  4.3
2  CCNC(=O)[C@H]1OC(n2cnc3c(NCCCCCCCCNS(=O)(=O)c4cccc5c(N(C)C)cccc45)ncnc32)[C@H](O)[C@@H]1O (stereo partly specified)                µM                   >                   10
3  CCNC(=O)[C@H]1OC(n2cnc3c(NCCCCCCNS(=O)(=O)c4cccc5c(N(C)C)cccc45)ncnc32)[C@H](O)[C@@H]1O (stereo partly specified)                µM                   =                  4.3
4  CCNC(=O)[C@H]1OC(n2cnc3c(NCCCCCCCCCCNS(=O)(=O)c4cccc5c(N(C)C)cccc45)ncnc32)[C@H](O)[C@@H]1O (stereo partly specified)                µM                   >                   10
5  CCNC(=O)[C@H]1OC(n2cnc3c(NCCCCCCCCCCCCNS(=O)(=O)c4cccc5c(N(C)C)cccc45)ncnc32)[C@H](O)[C@@H]1O (stereo partly specified)                µM                   >                   10
6  CCNC(=O)[C@H]1OC(n2cnc3c(NCCCCNS(=O)(=O)c4cccc5c(N(C)C)cccc45)ncnc32)[C@H](O)[C@@H]1O (stereo partly specified)                µM                   =                  9.5
